Test system: A549/ATCC NSCLC
Assay: NCI-60 one-dose screen, 48 h (100 = growth as untreated, 0 = no growth, -100 = all killed)
Conditions: 10 µM unless noted
Compounds without any hit were thinned out: in the full panel of roughly 83,000, 20% have a hit.
PROPERTY NAME: growth (%)

1) Cn1cc(-c2cc3ncnc(Nc4ccc(NC(=O)Nc5cc(C(C)(C)C)on5)cc4)c3s2)cn1
31.6
2) CC(O)c1cccc(/C(N)=N/C(N)=N/c2nc3ccccc3s2)c1 (stereo not drawn)
82
3) COC(=O)c1ccc(NC2=C(Cl)C(=O)C(C)=C(C)C2=O)cc1
81.5
4) C=C(C)[C@@H]1CC[C@]2(C(=O)N3CCN(C)CC3)CC[C@]3(C)[C@H](CC[C@@H]4[C@@]5(C)CC[C@H](OP(=O)(OCC)OCC)C(C)(C)[C@@H]5CC[C@]43C)[C@@H]12
75.6
5) NS(=O)(=O)c1ccc(Nc2nc(N/N=C/c3ccc4c(c3)OCO4)nc(Nc3ccccc3)n2)cc1
74.7
6) COc1cc(C(=O)c2cc(C(C)=O)c3ccc(C)cn23)cc(OC)c1OC
46.7
7) COc1ccc(C2c3[nH]c4ccc(Cl)cc4c3CCN2c2oc(CO)nc2C#N)cc1 (stereo not drawn)
38.1
8) C#C[C@]1(O)CC[C@H]2[C@@H]3CC=C4c5sc(N6CCN(C)CC6)nc5CC[C@]4(C)[C@H]3CC[C@@]21C
54.7

* * *

Items are presented alongside their recorded growth.
Test system: SK-MEL-5 melanoma
Test: NCI-60 one-dose screen, 48 h (100 = growth as untreated, 0 = no growth, -100 = all killed)
Details: 10 µM unless noted
About 83,000 compounds went through this panel and 20% of them were active in at least one assay; those are over-represented in the sample as a whole.
PROPERTY NAME: growth (%)

1) CC(=O)OCCCCN1C=C/C(=C\C(=O)n2ccc3ccccc32)c2ccccc21
100
2) CCOC(=O)c1c(N)c(C#N)cn1Cc1ccc(Cl)cc1Cl
78
3) Brc1cccc(-c2cc(-c3ccc4c(c3)OC=CO4)[nH]n2)c1
22.8
4) COc1cc2cc(Oc3ccc(NC(=O)c4cc(C(F)(F)F)cc(C(F)(F)F)c4)cc3)c(C)nc2cc1OCCN1CCOCC1
14.6
5) CC1(C)CC[C@]23CC[C@]4(C)[C@H](CC[C@@H]5[C@@]6(C)CC[C@H](NCO)C(C)(C)[C@@H]6CC[C@]54C)[C@H]2[C@H]1OC3
97.7
6) O=c1[nH][nH]c(-c2ccc(F)cc2)c1-c1nc2ccccc2s1
98.8
7) C#CCN(C)CCCOc1ccc(NCc2ccc(C(=O)NO)cc2)cc1Cl
9.67
8) COc1ccc([C@H]2C(=O)N(c3cc(OC)c(OC)c(OC)c3)[C@@H]2c2ccc(OC)c(O)c2)cc1
-23
9) CC(C)(C)Nc1nc2c(OCCc3ccccc3)cccn2c1-c1cccc(Oc2ccccc2)c1
-75
10) Cc1ncn(-c2ccc(/C=N/Nc3ccnc4cc(Cl)ccc34)cc2)c1C
-19.7
11) N#Cc1c(-c2cccs2)cc(-c2cnccn2)nc1SCC(=O)N/N=C/c1ccc(Cl)cc1
101
12) O=C(CCCCCCN1CC(=O)N2[C@@H](c3cccs3)c3[nH]c4ccccc4c3C[C@H]2C1=O)NO
74.8
13) COc1ccc(C2C(C#N)=C(/N=C/c3ccc(Cl)cc3)Oc3c2sc2c(C)cccc32)cc1 (configuration not stated)
27.8
14) C#CCN(C)CCCOc1ccc(NC(=O)CCCCCCCCC(=O)NO)cc1Cl
54.9
15) Cc1[nH]c(C(=O)Nc2ccccc2OCc2cccc(C(=O)NC3CCNC3)c2)c(Cl)c1Cl (configuration not stated)
97.6
16) CC1=C(C)C(=O)C(Nc2ccc(C)cc2)=C(Br)C1=O
94
17) C=C(C)[C@@H]1CC[C@]2(COP(=O)(OCC)OCC)CC[C@]3(C)[C@H](CC[C@@H]4[C@@]5(C)CC[C@H](OP(=O)(OCC)OCC)C(C)(C)[C@@H]5CC[C@]43C)[C@@H]12
11.5
18) N#Cc1c(-c2cccs2)cc(-c2cnccn2)nc1SCC(=O)N/N=C/c1ccncc1
101
19) CN1CCN(c2ccc(Nc3nc(NCCCNS(=O)(=O)c4ccc(Cl)cc4)c4sccc4n3)cc2)CC1
-91.1
20) CCCCCN1C(=O)/C(=c2\sc3n(c2=O)C2C(NN=3)N(CC)C(=O)N2CC)c2cccc(C)c21 (configuration not stated)
45.5
21) CNC(=O)c1cc(N2CCc3cc(NC(=O)Nc4ccc(N5CCOCC5)c(C(F)(F)F)c4)ccc32)ccn1
12.9
22) O=C(CCCCCCNC(=O)C(O)(O)C(F)(F)F)Nc1ccc(Br)cc1
-68.3
23) O=C(CSc1nnc(-c2cccs2)n1-c1ccccc1)Nc1ccccc1
80.1
24) Cn1cc(-c2nn3cc(-c4ccncc4)nc3s2)c2cc(F)ccc21
87.6
25) O=S(=O)(NCCCNc1nccc(-c2[nH]c(-c3ccccc3)nc2-c2ccc(F)c(O)c2)n1)c1cccc(F)c1
46.5
26) CN1CC[C@@H]2[C@@]3(C)CC[C@H](O)C(C)(C)[C@@H]3CC[C@@]2(C)[C@]2(C)CC[C@@]3(CO)CCC(C)(C)C[C@@H]3C12 (some centres not stated)
95.6
27) COc1cccc2c1C=CC1(O2)Oc2cccc(OC)c2C=C1C (configuration not stated)
24.6
28) Fc1cc(F)cc(NNC(=S)c2ccccc2)c1
46.2
29) Cn1cc(C2=C(c3coc4cc(Br)ccc34)C(=O)NC2=O)c2ccccc21
89.6
30) Brc1ccc(-c2cc(-c3ccc4c(c3)OCCO4)n[nH]2)s1
12.1
31) O=C(CSc1nnc(-c2ccc(Cl)cc2)n1-c1ccccc1)Nc1cccc(F)c1
87.9
32) Cc1ccc(NC(=O)Nc2nc3ccc([N+](=O)[O-])cc3s2)cc1
-55
33) CC(C)(C)c1cc(NC(=O)Nc2ccc(-c3cn4c5c(sc4n3)CCc3c[nH]cc3-5)cc2)no1
19.1
34) COc1ccc(-c2cc(-c3ccc(N(C)C)cc3)n3c(n2)nc2ccccc23)cc1
3.05
35) Cn1cc(-c2cc3ncnc(Nc4ccc(NC(=O)Nc5cc(C(C)(C)C)on5)cc4)c3s2)cn1
20.8
36) N#C/C(=N\Nc1ccc(F)cc1)C(=O)Nc1cc(-c2ccccc2)nn1-c1ccccc1
-51.4
37) COC(=O)CCCNCCCn1ccc2cc(NCc3cccc(-c4ccccc4)c3C)ccc21
92.8

* * *

System: SR leukemia
Assay: NCI-60 one-dose screen, 48 h (100 = growth as untreated, 0 = no growth, -100 = all killed)
Settings: 10 µM unless noted
This is part of a sample that, as a whole, favours compounds with a hit. Of some 83,000 tested, about 20% had one in any assay.
# growth values compiled below
PROPERTY NAME: growth (%)

1. NC1CC2(CCN(c3cnc(C(=O)Nc4cc(F)cc5cccnc45)cn3)CC2)C1
3.71
2. Cc1ccc(C)c(NC2=C(Cl)C(=O)c3nc(C)ccc3C2=O)c1
1.99
3. Cn1cc(-c2nn3cc(-c4ccncc4)nc3s2)c2cc(Br)ccc21
8.33
4. O=C(N/N=C/c1cc2ccccc2nc1Cl)c1cc(-c2nc3ccccc3[nH]2)nc2ccccc12
83.6
5. O=C(CCCCCC/C=C\c1csc(Br)n1)NO
50.6
6. CC1(C)CC[C@]23CC[C@]4(C)[C@H](CC[C@@H]5[C@@]6(C)CC[C@H](NCO)C(C)(C)[C@@H]6CC[C@]54C)[C@H]2[C@H]1OC3
3.69
7. CCCCSC1=C(Cl)CN(c2ccc(Cl)cc2)C1=O
34.3
8. O=S(=O)(NCCCNc1nccc(-c2[nH]c(-c3ccccc3)nc2-c2ccc(F)c(O)c2)n1)c1ccc(C(F)(F)F)cc1
1.01
9. Cc1ccc(/C(N)=N/C(N)=N/c2nc3ccccc3s2)cc1
21.1
10. O=C(CCCCCCNC(=O)c1csc(Br)n1)NO
23.9
11. Cn1cc(-c2nnc(N)nc2-c2c[nH]c3ccc(Br)cc23)c2cc(Br)ccc21
78.4
12. Cc1[nH]c(C(=O)Nc2ccccc2OCc2cccc(C(=O)NC3CCCNC3)c2)c(Cl)c1Cl (stereo unspecified)
-30.5
13. Cc1ccc(OCc2occc2C(=O)N2CCOCC2)cc1
104
14. CNC(=O)c1cc(N2CCc3cc(NC(=O)Nc4ccc(N5CCOCC5)c(C(F)(F)F)c4)ccc32)ccn1
14.4
15. CCCc1[nH]c(-c2cc(N)ccc2Cl)c2c1C(=O)CCCC2
85.8
16. C#CCOc1ccc(-c2csc(NC(=O)C=C)n2)cc1NS(=O)(=O)c1cccc2c(N(C)C)cccc12
8.34
17. CC[C@]12C=CCN3CC[C@@]4(c5ccc(OC)cc5N(C)[C@H]4[C@@](O)(C(=O)OC)[C@@H]1OC(=O)CCN1CCc4ccccc4C1)[C@@H]32
82.2
18. COC(=O)c1cccc(NC2=CC(=O)C(C)=C(C)C2=O)c1
45.5
19. N#Cc1nc(-c2ccccc2)oc1N1CCC(C2(C(F)(F)F)N=N2)CC1
85.1
20. O=C(CSc1nnc(-c2ccc(Cl)cc2)n1-c1ccccc1)Nc1ccccc1Cl
20.5
21. C=C1CCc2nc(SCC(=O)O)ccc2N1
115
